testedTarget: human NPY Y5 receptor (Homo sapiens, UniProt Q15761)
Construct: expressed in transfected cells
protocolNotes: Affinity for NPY Y5 receptor ([125I] peptide YY binding, CHO cell membranes)
conditionsUsed: inhibition of specific [125I] peptide YY binding, membranes of CHO cells expressing NPY Y5 receptor
Reported pIC50 values for a set of molecules
Reminder that pIC50 is minus the log10 of a molar concentration.

- molecule: "COc1ccc(NC(=O)C2CCC(NS(=O)(=O)C(C)(C)C)CC2)cc1OC (stereo not drawn)"
  testedTarget: "human NPY Y5 receptor (Homo sapiens, UniProt Q15761)"
  pIC50: 8.74
- molecule: "C[C@@H]1CN(c2c(F)c(F)c(NC(=O)C3CCC(NS(=O)(=O)C(C)(C)C)CC3)c(F)c2F)C[C@H](C)O1 (stereo partly drawn)"
  testedTarget: "human NPY Y5 receptor (Homo sapiens, UniProt Q15761)"
  pIC50: 8.59
- molecule: "C[C@@H]1CN(c2ccc(NC(=O)[C@H]3CC[C@H](NS(=O)(=O)C(C)(C)C)CC3)cc2)C[C@H](C)O1"
  testedTarget: "human NPY Y5 receptor (Homo sapiens, UniProt Q15761)"
  pIC50: 8.64

Okay, now this molecule:
Form field: reported pIC50 of CC(C)(C)S(=O)(=O)NC1CCC(C(=O)Nc2ccc(OC3CCCC3)cc2)CC1 (stereo not drawn)
9.42

---

testedTarget: human NPY Y5 receptor (Homo sapiens)
Construct: expressed in transfected cells
protocolNotes: Affinity for NPY Y5 receptor ([125I] peptide YY binding, CHO cell membranes)
conditionsUsed: inhibition of specific [125I] peptide YY binding, membranes of CHO cells expressing NPY Y5 receptor
measurementKind: IC50 (nM)
Express it in nM; write the number only.

Record CC(C)(C)S(=O)(=O)NC1CCC(C(=O)Nc2ccc3c(c2)OCO3)CC1 (stereo not drawn) : what is its IC50 with human NPY Y5 receptor (Homo sapiens)?
2.2

Which IC50 is reported with human NPY Y5 receptor (Homo sapiens) for this entry: CC(C)(C)S(=O)(=O)NC1CCC(C(=O)Nc2ccc(F)c(C(F)(F)F)c2)CC1 (stereo not drawn) ?
0.76

# get_value(readout= IC50, system= human NPY Y5 receptor (Homo sapiens)) for COCOc1cccc(NC(=O)C2CCC(NS(=O)(=O)C(C)(C)C)CC2)c1 (stereo not drawn)
1.7

Please state recorded IC50 (tested on human NPY Y5 receptor (Homo sapiens)) of CC(C)(C)S(=O)(=O)NC1CCC(C(=O)Nc2ccc(Cl)c(Cl)c2)CC1 (stereo not drawn)
0.52

Item: Cc1cc(=O)oc2cc(NC(=O)C3CCC(NS(=O)(=O)C(C)(C)C)CC3)ccc12 (stereo not drawn) Test system: human NPY Y5 receptor (Homo sapiens) Read-out: IC50 Value: ?
1.5

So what IC50 did `Cc1cc(NC(=O)[C@H]2CC[C@H](NS(=O)(=O)C(C)(C)C)CC2)ccc1N1C[C@@H](C)O[C@@H](C)C1` get with human NPY Y5 receptor (Homo sapiens)?
3.1

---

testedTarget: human NPY Y5 receptor (Homo sapiens, UniProt Q15761)
Construct: expressed in transfected cells
Sequence (Q15761 1-445): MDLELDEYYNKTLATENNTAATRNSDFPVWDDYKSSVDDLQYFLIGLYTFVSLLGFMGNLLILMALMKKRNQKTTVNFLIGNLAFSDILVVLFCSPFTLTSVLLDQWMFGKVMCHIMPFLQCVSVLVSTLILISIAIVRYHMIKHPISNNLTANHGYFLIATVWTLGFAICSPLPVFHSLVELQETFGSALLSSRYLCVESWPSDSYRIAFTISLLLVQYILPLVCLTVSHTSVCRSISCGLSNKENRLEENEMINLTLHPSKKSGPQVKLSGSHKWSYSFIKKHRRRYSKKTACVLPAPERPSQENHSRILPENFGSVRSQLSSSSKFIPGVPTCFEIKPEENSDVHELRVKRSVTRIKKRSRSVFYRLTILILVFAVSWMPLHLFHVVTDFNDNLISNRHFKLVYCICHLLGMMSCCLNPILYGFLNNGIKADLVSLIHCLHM
protocolNotes: cAMP production inhibitory activity in CHO cells
Assay type: cell-based
conditionsUsed: against 50 nM NPY inhibition of forskolin stimulated cAMP, CHO cells expressing human NPY Y5 receptor
Recorded measurements of pIC50, one per entry
Friendly reminder that pIC50 comes from taking -log10 of the concentration in mol/L.

- compound: "CC(C)(C)S(=O)(=O)NC1CCC(C(=O)Nc2ccc3c(c2)CCC3)CC1 (stereo not shown)"
  pIC50: 8.20

Any idea what its pIC50 is? The compound is CC(O)(c1ccccc1)c1ccc(NC(=O)C2CCC(NS(=O)(=O)C(C)(C)C)CC2)cc1 (stereo not shown)
7.51

Param item = CC(C)(C)S(=O)(=O)NC1CCC(C(=O)Nc2ccc(C(=O)c3ccccc3)cc2)CC1 (stereo not shown) ; retrieve measured pIC50.
8.09

Using the record for CC(C)(C)S(=O)(=O)NC1CCC(C(=O)Nc2ccc3c(c2)OCO3)CC1 (stereo not shown) , report its pIC50.
7.10

Request the reported pIC50 associated with CCC(C)NC(=O)c1ccc(NC(=O)C2CCC(NS(=O)(=O)C(C)(C)C)CC2)cc1 (stereo not shown)
7.55

Item under review: CC(C)(C)S(=O)(=O)NC1CCC(C(=O)Nc2ccc(F)c(F)c2F)CC1 (stereo not shown) . Reported pIC50?
7.13

---

Each entry below carries its reported pIC50.
testedTarget: human NPY Y5 receptor (Homo sapiens)
Construct: expressed in transfected cells
protocolNotes: cAMP production inhibitory activity in CHO cells
Format: cell-based
conditionsUsed: against 50 nM NPY inhibition of forskolin stimulated cAMP, CHO cells expressing human NPY Y5 receptor
Remember the convention: pIC50 equals -log10 of concentration in molar.

Consider the worked cases shown below.
- compound: "CC(C)(C)S(=O)(=O)NC1CCC(C(=O)Nc2ccc(C(F)(F)F)cc2)CC1 (stereo not drawn)"
  testedTarget: "human NPY Y5 receptor (Homo sapiens)"
  pIC50: 8.12
- compound: "CCC1(CC)CN(c2ccc(NC(=O)C3CCC(NS(=O)(=O)C(C)(C)C)CC3)cc2)CCO1 (stereo not drawn)"
  testedTarget: "human NPY Y5 receptor (Homo sapiens)"
  pIC50: 8.21

Lookup: pIC50 / human NPY Y5 receptor (Homo sapiens) / CC(C)(C)S(=O)(=O)NC1CCC(C(=O)Nc2ccc(Cl)c(Cl)c2)CC1 (stereo not drawn)
8.17

---

testedTarget: human NPY Y5 receptor (Homo sapiens, UniProt Q15761)
Construct: expressed in transfected cells
protocolNotes: Affinity for NPY Y5 receptor ([125I] peptide YY binding, CHO cell membranes)
conditionsUsed: inhibition of specific [125I] peptide YY binding, membranes of CHO cells expressing NPY Y5 receptor
From the text: Experiment 1 Affinity for NPY Y5 Receptor cDNA sequence encoding a human NPY Y5 receptor (WO096/16542) was cloned in the expression vector pME18S (Takebe et al. Mol. Cell. Biol. 8, 8957). The obtained expression vector was transfected into a host CHO cells by using a Lipofect AMINE reagent (Trademark, Gibco BRL Co., Ltd.) according to an instruction protocol to obtain the cells that stably express NPY Y5 receptor. […]
Hi! Could you tag entries with IC50 below 1 nM as 1.0, and those at or above as 0.0? Much appreciated.

Just wondering, is IC50 of CCCCc1ccc(NC(=O)N2CCC(NS(=O)(=O)C(C)(C)C)CC2)cc1 [Compound I-120] below 1 nM?
0.0

Problem: For the compound CC(C)S(=O)(=O)NC1CCN(C(=O)Nc2ccc(C(F)(F)F)cc2)CC1 [Ia-222] , is IC50 under 1 nM?
0.0

# check: IC50 < 1 nM for CC(C)NC(=O)c1cccc(NC(=O)c2ccc(NS(=O)(=O)C(C)(C)C)cc2)c1 [Ia-132]
0.0

---

testedTarget: human NPY Y5 receptor (Homo sapiens, UniProt Q15761)
Construct: expressed in transfected cells
protocolNotes: Affinity for NPY Y5 receptor ([125I] peptide YY binding, CHO cell membranes)
conditionsUsed: inhibition of specific [125I] peptide YY binding, membranes of CHO cells expressing NPY Y5 receptor
Threshold 3 nM: IC50 strictly smaller gives yes (1), otherwise no (0).

- molecule: "CC(C)(C)S(=O)(=O)NC1CCC(C(=O)Nc2ccc3ncsc3c2)CC1 (stereo not shown) [Compound I-207]"
  classLabel: "no (0)"

Is IC50 strictly under 3 nM for the entry C[C@@H]1C[C@@H](C)CN(c2ccc(NC(=O)C3CCC(NS(=O)(=O)C(C)(C)C)CC3)cc2)C1 (stereo partly shown) [Ia-38] ?
yes (1)

Given CC(C)(C)S(=O)(=O)NC1CCC(C(=O)Nc2cccc(OC3CCCCC3)c2)CC1 (stereo not shown) [Ia-176] , is recorded IC50 strictly lower than 3 nM?
yes (1)

Could you please tell me whether IC50 recorded for CC(C)(C)S(=O)(=O)NC1CCC(C(=O)Nc2ccc(F)c(F)c2F)CC1 (stereo not shown) [Ia-24] is less than 3 nM?
no (0)

Strictly below 3 nM: is that where IC50 of CC(C)(C)S(=O)(=O)Nc1ccc(C(=O)Nc2ccc(-c3ccco3)cc2)cc1 [Ia-210] sits?
yes (1)

Criterion: IC50 strictly below 3 nM. Is it met by CCCc1ccc(NC(=O)C2CCC(NS(=O)(=O)C(C)(C)C)CC2)cc1 (stereo not shown) [Ia-10] ?
yes (1)

Hello, I'm reviewing records and need to know if IC50 of CC(C)(C)S(=O)(=O)NC1CCC(C(=O)Nc2ccc(C(F)(F)F)cn2)CC1 (stereo not shown) [Ia-178] is below 3 nM. Could you check?
no (0)

Input CC(C)(C)S(=O)(=O)NC1CCN(C(=O)Nc2ccc(C(F)(F)F)cc2)CC1 [Ia-219] ; condition: IC50 strictly below 3 nM. Does it hold?
yes (1)

Does CCCCOc1cccc(CNC(=O)C2CCC(NS(=O)(=O)C(C)(C)C)CC2)c1 (stereo not shown) [Compound I-187] have IC50 strictly under 3 nM?
yes (1)

Criterion: IC50 strictly below 3 nM. Is it met by CC(C)(C)S(=O)(=O)NC1CCC(C(=O)Nc2cccc(Oc3ccccc3)c2)CC1 (stereo not shown) [Compound I-134] ?
yes (1)
